# EXPERIMENT: PSAC antagonists in infected red cells, primary screen, cell-based, P. falciparum Indochina, OD700, 1 h (AID 1154)
# CONDITION_CONTEXT: P. falciparum Indochina infected RBC osmotic lysis, higher = more signal, called active from +8 up or from −8 down
For each of the compounds below, state its z-score.
Just the number.

Q: What does the data say about its z-score? Entry: COC(=O)[C@@]1(Cc2ccc(F)cc2)[C@H]2c3cc(C(=O)N4CCCC4)n(CC4CC4)c3C[C@H]2CN1C(=O)c1ccccc1
A: 2.89

Q: What does the data say about its z-score? Entry: COc1ccc(C#Cc2ccc3c(c2)[C@]2(C(=O)N3)[C@H](C(=O)N3CCCCCCC3)[C@H]3C(=O)O[C@H](c4ccccc4)[C@H](c4ccccc4)N3[C@@H]2c2ccc(O)cc2)cc1
A: 0.445

Q: What does the data say about its z-score? Entry: COc1cc2c(cc1OC)CN(C(=O)[C@@H]1[C@H]3C(=O)O[C@H](c4ccccc4)[C@H](c4ccccc4)N3[C@H](c3ccc(O)cc3)[C@@]13C(=O)Nc1ccc(C#CCCO)cc13)CC2
A: 0.125

Q: What does the data say about its z-score? Entry: [N-]=[N+]=NCc1ccccc1[C@@H]1OC(c2ccc(OCCCO)cc2)=N[C@]1(Cc1ccccc1)C(=O)NCCN1CCOCC1
A: 18

Q: What does the data say about its z-score? Entry: CC(C)C(CO)N1C(=O)[C@@H]2[C@H]3C(=O)OCC=C[C@H]3OC23C=CCN(C(C)(C)C)C(=O)[C@@H]13 (stereo partly specified)
A: 0.897

Q: What does the data say about its z-score? Entry: C=CCN1C(=O)[C@@]2(O[C@@H](CCO)[C@H]([Si](C)(C)c3ccc(OC)cc3)[C@H]2C)c2cc(N3CCOC3=O)ccc21
A: 24.6

----------
For each of the compounds below, state its composite z-score.
# MEASURED_TARGET: Left-right determination factor 2 (Homo sapiens)
# EXPERIMENT: LEFTY2 binders on small-molecule microarrays, primary screen, biochemical, small-molecule microarray, 635 nm fluorescence scan (AID 1110)
# CONDITION_CONTEXT: LEFTY2 binding, higher = more signal
Just the number.

Q: What does the data say about its composite z-score? Entry: COC(=O)[C@@]1(Cc2ccc(OC)cc2)[C@H]2c3cc(C(=O)N4CCCC4)n(Cc4cc(C)n(C)n4)c3C[C@H]2CN1C(=O)c1ccccc1
A: 0.78

Q: What does the data say about its composite z-score? Entry: [N-]=[N+]=Nc1ccccc1C[C@]1(C(=O)O)N=C(c2ccc(OCCCO)cc2)O[C@H]1c1ccccc1N=[N+]=[N-]
A: 0.282

Q: What does the data say about its composite z-score? Entry: COCCOC(=O)N1C(=O)[C@@]2(c3cc(C#CC4=CCCCC4)ccc31)[C@H](c1ccc(O)cc1)N1[C@H](c3ccccc3)[C@H](c3ccccc3)OC(=O)[C@H]1[C@@H]2C(=O)NC[C@H](O)c1ccccc1
A: 0.623

Q: What does the data say about its composite z-score? Entry: O=C1C[C@@](C(=O)NCC(F)(F)F)(c2ccc([N+](=O)[O-])cc2)[C@@H](c2ccc(CO)cc2)N1CC12CC3CC(CC(C3)C1)C2
A: 0.309

Q: What does the data say about its composite z-score? Entry: C[C@]1(C(=O)NCCN2CCOCC2)c2ccccc2C(=O)N(Cc2cc(F)cc(C(F)(F)F)c2)[C@H]1c1ccc(CO)cc1
A: -1.37

Q: What does the data say about its composite z-score? Entry: COC(=O)[C@@]1(Cc2ccccc2)[C@H]2c3cc(C(=O)N(C)C)n(CCn4cc([N+](=O)[O-])nc4C)c3C[C@H]2CN1C(=O)c1ccccc1
A: 0.0356

Q: What does the data say about its composite z-score? Entry: NC(=O)[C@@H]1[C@H]2C(=O)O[C@H](c3ccccc3)[C@H](c3ccccc3)N2[C@H](c2ccc(OCCO)cc2)[C@@]12C(=O)Nc1ccc(C#CCCO)cc12
A: -0.483

Q: What does the data say about its composite z-score? Entry: COC(=O)c1c2oc(c1C(=O)OC)C(=O)N1CCC[C@H]1Cn1nncc1CN(Cc1ccccc1)C(=O)N[C@H](CO)CC2
A: 0.239

Q: What does the data say about its composite z-score? Entry: C=CC[C@H](OC(=O)Nc1ccc(SC)cc1)c1ccc(OCCO)cc1
A: -0.952

Q: What does the data say about its composite z-score? Entry: C=CCC(OC(C)=O)[C@@H]1[C@@H](N(Cc2ccc(-c3cccc(C(F)(F)F)c3)o2)C(=O)c2ccc(C)cc2)c2cc(OCCCO)ccc2N1C(=O)Cc1ccc(OC)cc1 (stereo partly drawn)
A: -0.115

Q: What does the data say about its composite z-score? Entry: CCOC(=O)C1=C[C@@H](C(C)(C)C)N(S(=O)(=O)c2ccc(C)cc2)[C@H]1c1cccc(Cl)c1
A: 0.553

Q: What does the data say about its composite z-score? Entry: O=C(CS)NCCCCCCNC(=O)[C@@H]1C[C@@H]2C(=O)NCC(=O)N2[C@@H]1c1ccc(O)cc1
A: -0.601

Q: What does the data say about its composite z-score? Entry: O=C1O[C@H](c2ccccc2)[C@H](c2ccccc2)N2[C@H]1[C@@H](C(=O)O)[C@]1(C(=O)Nc3ccc(C#CC4(O)CCCCCC4)cc31)[C@H]2c1ccc(O)cc1
A: -0.114
